Biological target: muPA-K143A (murine)
Assay: enzyme inhibition (steady state, chromogenic substrate S-2444); about 2 nM enzyme (purified or conditioned medium of transfected cells) pre-incubated 15 min with varied peptide in HBS (10 mM HEPES pH 7.4, 140 mM NaCl) with 0.1% BSA at 37°C; substrate about KM; fit for competitive inhibition; highest peptide concentration 400 µM
Bridge positions count the residues as written; N and C are the ends. Ends that are not written are not given here.
Overview of reported pKi across a group of binders:
// returns pKi (minus log10 of molar concentration), number only

binder: CPAYSRYLAC (disulfide 1-10 (inferred)) [Mupain-1 D9A]
pKi: 5.36

Input: For the binder shown here, CPAYSRYLDC (disulfide 1-10 (inferred)) [mupain-1] , give the reported pKi.
Output: 5.31

Origin of values: paper PMC4278837
